test: Tmax in mouse at 50 mg/kg, po; type: ADME, organism-based; design: dose 50 mg/kg, route oral; settings: in vivo
Experimental Endpoint: Tmax (h)
Quick reminder: number only, in h, skip the unit.

input: Give the measured Tmax of COc1ccc(-c2nc(Nc3cccc(NC(=O)N4CCCC4)c3)nc3nc[nH]c23)cc1 .
output: 1

----------
experiment: AUC (0 to last) in mouse at 50 mg/kg, po; type: ADME, organism-based; set-up: time 0 - last, dose 50 mg/kg, route oral; conditions: plasma
Experimental Endpoint: AUC(0-t) (ng·h/mL)
Quick reminder: number only, in ng·h/mL, skip the unit.

input: What value of measured AUC(0-t) is listed for COc1ccc(-c2nc(Nc3cccc(NC(=O)N4CCCC4)c3)nc3nc[nH]c23)cc1 ?
output: 79000
